src = patent US7973069B2

system: HCV replicon; assay type: cell-based
Let's look at some molecules and their measured IC50.
endpoint.name: IC50

- molecule: "CCOc1ccc2c(c1)c(C#N)c(-c1ccc(NC(=O)OC(C)C3CC3)cc1)n2C1CCC1 (stereo not shown) [Compound 1295]"
  target.of.assay: "HCV replicon"
  endpoint.name: "IC50"
  value.measured: "< 0.5 µM"
- molecule: "CCCCOC(=O)Nc1ccc(-c2c(C#N)c3ccc(OC(F)F)cc3n2CC)cc1"
  target.of.assay: "HCV replicon"
  endpoint.name: "IC50"
  value.measured: "0.5 to 2 µM"
- molecule: "CCCOC(=O)Nc1ccc(-c2c(C#N)c3ccc(OCC)cc3n2C2CCC2)cc1"
  target.of.assay: "HCV replicon"
  endpoint.name: "IC50"
  value.measured: "< 0.5 µM"
- molecule: "COc1ccc2c(C#N)c(-c3ccc(NC(=O)NC4CCCC4)cc3)n(C3CCC3)c2c1"
  target.of.assay: "HCV replicon"
  endpoint.name: "IC50"
  value.measured: "< 0.5 µM"
- molecule: "CCOC(=O)Nc1ccc(-c2c(C#N)c3cc(OC)ccc3n2C2CCC2)cc1"
  target.of.assay: "HCV replicon"
  endpoint.name: "IC50"
  value.measured: "0.5 to 2 µM"
- molecule: "CCn1c(-c2cccc(N3CCOC3=O)c2)c(C#N)c2ccc(OCCCN3CCOCC3)cc21"
  target.of.assay: "HCV replicon"
  endpoint.name: "IC50"
  value.measured: "0.5 to 2 µM"
- molecule: "CCn1c(-c2ccc(NC(=O)C3CC3)cc2)c(C#N)c2ccc(OCCn3cnnc3)cc21"
  target.of.assay: "HCV replicon"
  endpoint.name: "IC50"
  value.measured: "0.5 to 2 µM"
- molecule: "CCOc1ccc2c(c1)c(C#N)c(-c1ccc(NC(=O)OC3CCCC3)cc1)n2C1CCC1"
  target.of.assay: "HCV replicon"
  endpoint.name: "IC50"
  value.measured: "< 0.5 µM"
- molecule: "CCCNC(=O)Nc1ccc(-c2c(C#N)c3cc(OC)ccc3n2C2CCC2)cc1"
  target.of.assay: "HCV replicon"
  endpoint.name: "IC50"
  value.measured: "0.5 to 2 µM"
- molecule: "CCn1c(-c2ccc(NC(=O)OCC(C)C)cc2)c(C#N)c2ccc(OC(F)F)cc21"
  target.of.assay: "HCV replicon"
  endpoint.name: "IC50"
  value.measured: "0.5 to 2 µM"
- molecule: "N#Cc1c(-c2ccc(NC(=O)OC3CCC3)cc2)n(C2CCC2)c2cc(OCC3CCCO3)ccc12 (stereo not shown)"
  target.of.assay: "HCV replicon"
  endpoint.name: "IC50"
  value.measured: "< 0.5 µM"
- molecule: "CCCn1c(-c2ccc(NC(=O)OC)cc2)c(C#N)c2ccc(OCC)cc21"
  target.of.assay: "HCV replicon"
  endpoint.name: "IC50"
  value.measured: "0.5 to 2 µM"
- molecule: "COC(=O)c1ccc2c(C#N)c(-c3ccc(NC(=O)OC(C)C)cc3)n(C3CCC3)c2c1"
  target.of.assay: "HCV replicon"
  endpoint.name: "IC50"
  value.measured: "< 0.5 µM"
- molecule: "CCCn1c(-c2ccc(NC(=O)NCC)cc2)c(C#N)c2cc(OC)ccc21"
  target.of.assay: "HCV replicon"
  endpoint.name: "IC50"
  value.measured: "0.5 to 2 µM"
- molecule: "CCCOC(=O)Nc1ccc(-c2c(C#N)c3ccc(OC)cc3n2COC)cc1"
  target.of.assay: "HCV replicon"
  endpoint.name: "IC50"
  value.measured: "0.5 to 2 µM"
- molecule: "CC(C)OC(=O)Nc1ccc(-c2c(C#N)c3ccc(Oc4ncccn4)cc3n2C2CCC2)cc1"
  target.of.assay: "HCV replicon"
  endpoint.name: "IC50"
  value.measured: "< 0.5 µM"
- molecule: "CCOc1ccc2c(C#N)c(-c3ccc(NP(=O)(OC)OC)cc3)n(C3CCC3)c2c1"
  target.of.assay: "HCV replicon"
  endpoint.name: "IC50"
  value.measured: "< 0.5 µM"
- molecule: "CCOc1ccc2c(c1)c(C#N)c(-c1ccc(NC(=O)NC(C)C)cc1)n2C1CCC1 [Compound 1224]"
  target.of.assay: "HCV replicon"
  endpoint.name: "IC50"
  value.measured: "0.5 to 2 µM"
- molecule: "CCOC(=O)Nc1ccc(-c2c(C#N)c3ccc(OC)cc3n2CC)cc1F"
  target.of.assay: "HCV replicon"
  endpoint.name: "IC50"
  value.measured: "0.5 to 2 µM"
